- Assayed system: T1, COX14 peptide complexed with HLA-A*02:01 on T2 cells (human)
- T1 construct: whole, on cells
- Test method notes: flow cytometry, peptide-loaded T2 cells;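 further: binding of single-chain Fv antibody constructs, raised in XenoMouse, to peptide-pulsed T2 cells measured by flow cytometry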
Measurement kind: Signal/background

>  <Binder>
18182-A4 (scFv, scFv in bacterial lysate, detected with anti-Flag M2) scFv: EVQLLESGGGVVQPGRSLRLSCAASGFTFSSYAMTWVRQAPGQGLEWVSSISGSGGGTYYAASVKGRFTISRDNSKNTLYLQMNSLRAEDTAVYYCATGKGVHLGFDYWGQGTLVTVSSGGGGSGGGGSGGGGSELVLTQPPSVSVAPGQTARITCGGNNIGSKSVHWYQQKPGQAPVLVVYDDNDRPSGIPERFSGSNFGNTATLIISRVAAGDEADYYCQVWDSSSDHVVFGGGTKLTVL

>  <Signal/background>
0.9

$$$$
>  <Binder>
18179-D7 (scFv, scFv in bacterial lysate, detected with anti-Flag M2) scFv: EVQLLESGGGLVQPGGSLRLSCAASGFTFSNAWMSWVRQAPGKGLEWVGRIKGNTYGGTTDYAAPVKGRFTISRDDSKNTLFLQMNSLKTEDTAVYYCTTPSYSGSYYNYFSVMDVWGQGTTVTVSSGGGGSGGGGSGGGGSELVMTQSPSSLSASVGDRVTITCRTSQSISSYLNWYQQKPGRAPKLLIFAASSLQGGVPSRFSGSGSGTDFTLTISSLQPEDFATYYCQQTYSMPFTFGPGTKVDIK

>  <Signal/background>
1

$$$$
>  <Binder>
18181-B8 (scFv, scFv in bacterial lysate, detected with anti-Flag M2) scFv: EVQLLESGPGLVKPSQTLSLTCTVSGGSISSGGYYWSWIRQHPGKGLEWIGYISHSGSTYYNPSLKSRVTISVDTSKNQFSLNLTSVTAADTAVYYCAREKMWFGVLNYYYGMDVWGQGTTVTVSSGGGGSGGGGSGGGGSELVMTQTPLSLPVTPGEPASISCRSSQSLLHRNGYNYLDWYLQKPGQSPQLLIYLGSNRASGVPDRFIGSGSGTDFTLEISRVEAEDVGVYYCMQALQTPSFGQGTKVEIK

>  <Signal/background>
0.9

$$$$
>  <Binder>
18089-D12 (scFv, scFv in bacterial lysate, detected with anti-Flag M2) scFv: EVQLLESGGGVVQPGRSLRLSCAASGFTFSTYGMHWVRQAPGKGLEWVAVISYDGSNKYYADSVKGRFTISRDDSKNTLYLQMNSLRAEDTAVYYCARGQLLTGYWGQGTLVTVSSGGGGSGGGGSGGGGSELVMTQSPSSLSASVGDRVTITCRASQGISNYLAWYQQKPGKVPKLLIYAASTLQSGVPSRFSGSGSGTDFTLTISSLQPEDVATYYCQKYNSAPFTFGPGTKVEIK

>  <Signal/background>
1.1

$$$$
>  <Binder>
18181-E2 (scFv, scFv in bacterial lysate, detected with anti-Flag M2) scFv: EVQLLESGPGLVKPSQTLSLTCTVSGDSISSNPYYWSWIRQHPGKGLEWIGYISHSGSTYYNPSLKSRVTISVDTSKNQFSLNLTSVTAADTAVYYCARDRLWFGVLNYYYGMDVWGLGTTVTVSSGGGGSGGGGSGGGGSELVMTQSPLSLPVTPGEPASISCRSSQSLLHSSGYNYLDWYLQKPGQSPQLLIYLGSNRASGVPDRFSGSGSGTDFTLKISKVEAEDVGVYYCMQALQTPRTFGQGTKVDIK

>  <Signal/background>
1.1

$$$$
>  <Binder>
18182-B5 (scFv, scFv in bacterial lysate, detected with anti-Flag M2) scFv: EVQLLESGGGLVQPGGSLRLSCAASGFTFSSHAMSWVRQAPGKGLEWVSAISGSGGGTYYADSVKGRFTISRDNSKNTLYLQMNSLRAEDTAVYYCATGKGVHLGFDYWGQGTLVTVSSGGGGSGGGGSGGGGSELVLTQPPSVSVAPGQTARITCGGNNIGSKSVHWYQQKPGQAPVLVVYDDNDRPSGIPERFSGSNFGNTATLIISRVEAGDEADYYCQVWDSSSDHVVFGGGTKLTVL

>  <Signal/background>
1

$$$$

Would you kindly share the measured Signal/background for 18179-D11 (scFv, scFv in bacterial lysate, detected with anti-Flag M2) scFv: EVQLLESGGGLVKPGGSLRLSCAASGFTFSNAWMSWVRQAPGKGLEWVGRIKGNTYGGTTDYAAPVKGRFTISRDDSKNTLFLQMNSLKTEDTAVYYCTTPSYSGSYYNYFSVMDVWGQGTTVTVSSGGGGSGGGGSGGGGSELQMTQSPSSLSASVGDRVTITCRTSQSISSYLNWYQQKPGRAPKLLIFAASSLQGGVPSRFSGSGSGTDFTLTISSLQPEDFATYYCQQTYSMPFTFGPGTKVDIK ?
1

Would you kindly share the measured Signal/background for 18181-G10 (scFv, scFv in bacterial lysate, detected with anti-Flag M2) scFv: EVQLLESGPGLVKPSQTLSLTCTVSGDSISSNPYYWSWIRQLPGKGLEWIGYISYSGSTFYNPSLKSRVTISVDTSKNQFSLNLTSVTAADTAVYYCARDRLWFGVLNYYYGMDVWGLGTTVTVSSGGGGSGGGGSGGGGSELVMTQSPLSLPVTPGEPASISCRSSQSLLHSTGYNYVDWYLQKPGQSPQLLIYLGSNRASGVPDRFSGSGSGTDFTLKISRVEAEDVGFYYCMQALQTPRTFGQGTKVEIK ?
1
